The values you see were collected from paper PMC9005681.

Tested on: cloned human or rodent CNS receptors, channels, and transporters (PDSP panel)
Method notes: PDSP GPCR panel primary binding assays at 10 μM
Settings: Alpha2C; primary assay, mean inhibition
Below, each entry is listed with its recorded Mean %.
Experimental readout: Mean % (%)

Compound | Experimental readout | Experimental value
CNc1nc(C)nc(N[C@H]2CCC[C@@H](C(=O)NCc3ccc(C#N)cc3C(F)(F)F)C2)n1 [UNC10302679A, GSK2256294A] | Mean % | 1.02
CCC(=O)N1CCC(NC(=O)Nc2ccc(OC(F)(F)F)cc2)CC1 [UNC10302681A, TPPU] | Mean % | -0.34
O=C(NC1CC1)C(=O)C(Cc1ccccc1)NC(=O)[C@H]1CCC(=O)N1Cc1ccccc1 (stereo partly shown) [UNC10302676A, ABT-957 (Alicapistat)] | Mean % | -12.84
CC(=O)N1CCC(NC(=O)NC23CC4CC(CC(C4)C2)C3)CC1 [UNC10302683A, AR9281] | Mean % | -1.59

----------
Listed below: Inhibition 1 values for each entry.
Measured on: cloned human or rodent CNS receptors, channels, and transporters (PDSP panel) (Homo sapiens, UniProt P28221)
Construct: expressed in transfected cells
Sequence (P28221 whole entry): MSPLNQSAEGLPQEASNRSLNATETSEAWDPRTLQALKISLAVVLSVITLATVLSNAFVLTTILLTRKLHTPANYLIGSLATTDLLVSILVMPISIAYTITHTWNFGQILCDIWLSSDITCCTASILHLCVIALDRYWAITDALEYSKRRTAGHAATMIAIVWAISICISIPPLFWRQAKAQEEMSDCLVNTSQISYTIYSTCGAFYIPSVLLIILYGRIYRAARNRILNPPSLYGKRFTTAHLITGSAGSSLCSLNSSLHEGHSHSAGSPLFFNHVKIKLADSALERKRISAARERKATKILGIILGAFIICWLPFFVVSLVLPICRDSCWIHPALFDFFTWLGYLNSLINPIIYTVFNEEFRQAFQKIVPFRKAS
Method notes: PDSP GPCR panel primary binding assays at 10 μM
Settings: 5-HT1D; primary assay, replicate 1
Method: GPCR panel: Screening against the receptors within the PDSP panel offers an assessment of off-target pharmacological activity at cloned human or rodent CNS receptors, channels, and transporters that could confound CNS-related phenotypes. A total of 46–47 primary binding assays were run in quadruplicate on these compounds at 10 μM, with follow-up secondary binding assays in 11-point dose-response in triplicate for select compounds versus select receptors. […]

Molecule | Inhibition 1, %
CNc1nc(C)nc(N[C@H]2CCC[C@@H](C(=O)NCc3ccc(C#N)cc3C(F)(F)F)C2)n1 [UNC10302679A, GSK2256294A] | 26.13
CCC(=O)N1CCC(NC(=O)Nc2ccc(OC(F)(F)F)cc2)CC1 [UNC10302681A, TPPU] | 17.8
CC(=O)N1CCC(NC(=O)NC23CC4CC(CC(C4)C2)C3)CC1 [UNC10302683A, AR9281] | 17.8
O=C(NC1CC1)C(=O)C(Cc1ccccc1)NC(=O)[C@H]1CCC(=O)N1Cc1ccccc1 (stereo partly shown) [UNC10302676A, ABT-957 (Alicapistat)] | 25.3

----------
Measured on: cloned human or rodent CNS receptors, channels, and transporters (PDSP panel) (Homo sapiens)
Construct: expressed in transfected cells
Method notes: PDSP GPCR panel primary binding assays at 10 μM
Settings: Receptor MOR; primary assay, 10 μM
The entries below are paired with their reported Inhibition 1.
Experimental readout: Inhibition 1 (%)

Compound | Units text | Experimental value
Cl.NC(=O)c1cnc(N[C@@H]2CCCC[C@@H]2N)nc1Nc1cccc(-n2nccn2)c1 [UNC10302682A, P505-15 (PRT06207 HCl)] | % | 27.09
O=c1oc2ccccc2cc1-c1cn2cc(Cc3ccc(F)cc3)sc2n1 [UNC10302680A, iMDK] | % | 9.07
CCCCNc1ncc2c(-c3ccc(CN4CCN(C)CC4)cc3)cn([C@H]3CC[C@H](O)CC3)c2n1 [UNC2025C, UNC2025] | % | 9.74
c1cn2cc(-c3ccc4cn[nH]c4c3)nc(Nc3ccc(N4CCOCC4)cc3)c2n1 [UNC10302678A, Entospletinib (GS-9973)] | % | -0.9

----------
Measured on: cloned human or rodent CNS receptors, channels, and transporters (PDSP panel) (Homo sapiens, UniProt P18089)
Construct: expressed in transfected cells
Sequence (P18089 whole entry): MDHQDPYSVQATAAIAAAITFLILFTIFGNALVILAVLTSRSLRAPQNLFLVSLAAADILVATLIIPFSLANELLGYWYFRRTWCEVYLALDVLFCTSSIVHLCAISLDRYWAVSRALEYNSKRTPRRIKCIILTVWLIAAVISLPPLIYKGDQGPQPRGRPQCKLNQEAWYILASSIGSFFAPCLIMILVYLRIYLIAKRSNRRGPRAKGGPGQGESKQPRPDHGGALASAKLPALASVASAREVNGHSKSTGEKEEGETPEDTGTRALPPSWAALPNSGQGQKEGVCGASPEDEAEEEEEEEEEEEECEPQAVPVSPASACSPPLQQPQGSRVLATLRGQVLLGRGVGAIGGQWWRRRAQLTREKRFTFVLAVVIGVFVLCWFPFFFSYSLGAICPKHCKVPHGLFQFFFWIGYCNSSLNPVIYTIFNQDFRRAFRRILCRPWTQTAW
Method notes: PDSP GPCR panel primary binding assays at 10 μM
Settings: Receptor Alpha2B; primary assay, 10 μM
The reader will find reported Inhibition 1 values listed item by item below.

Compound | Inhibition 1, %
O=c1oc2ccccc2cc1-c1cn2cc(Cc3ccc(F)cc3)sc2n1 [UNC10302680A, iMDK] | 0.83
c1cn2cc(-c3ccc4cn[nH]c4c3)nc(Nc3ccc(N4CCOCC4)cc3)c2n1 [UNC10302678A, Entospletinib (GS-9973)] | 1.15
CCCCNc1ncc2c(-c3ccc(CN4CCN(C)CC4)cc3)cn([C@H]3CC[C@H](O)CC3)c2n1 [UNC2025C, UNC2025] | 27.09
Cl.NC(=O)c1cnc(N[C@@H]2CCCC[C@@H]2N)nc1Nc1cccc(-n2nccn2)c1 [UNC10302682A, P505-15 (PRT06207 HCl)] | 4.86

----------
Reported Inhibition 1 values are given for each entry in this list.
Measured on: cloned human or rodent CNS receptors, channels, and transporters (PDSP panel) (Homo sapiens)
Construct: expressed in transfected cells
Method notes: PDSP GPCR panel primary binding assays at 10 μM
Settings: 5-HT6; primary assay, replicate 1
Experimental readout: Inhibition 1 (%)

Compound | Experimental value
CCC(=O)N1CCC(NC(=O)Nc2ccc(OC(F)(F)F)cc2)CC1 [UNC10302681A, TPPU] | 25.92
O=C(NC1CC1)C(=O)C(Cc1ccccc1)NC(=O)[C@H]1CCC(=O)N1Cc1ccccc1 (stereo partly shown) [UNC10302676A, ABT-957 (Alicapistat)] | 7.34
CC(=O)N1CCC(NC(=O)NC23CC4CC(CC(C4)C2)C3)CC1 [UNC10302683A, AR9281] | 32.27
CNc1nc(C)nc(N[C@H]2CCC[C@@H](C(=O)NCc3ccc(C#N)cc3C(F)(F)F)C2)n1 [UNC10302679A, GSK2256294A] | 12.58

----------
Measured on: cloned human or rodent CNS receptors, channels, and transporters (PDSP panel) (Homo sapiens)
Construct: expressed in transfected cells
Method notes: PDSP GPCR panel primary binding assays at 10 μM
Settings: 5-HT1E; primary assay, replicate 4
Method: GPCR panel: Screening against the receptors within the PDSP panel offers an assessment of off-target pharmacological activity at cloned human or rodent CNS receptors, channels, and transporters that could confound CNS-related phenotypes. A total of 46–47 primary binding assays were run in quadruplicate on these compounds at 10 μM, with follow-up secondary binding assays in 11-point dose-response in triplicate for select compounds versus select receptors. […]

Compound | Units text | Inhibition 4
O=C(NC1CC1)C(=O)C(Cc1ccccc1)NC(=O)[C@H]1CCC(=O)N1Cc1ccccc1 (stereo partly shown) [UNC10302676A, ABT-957 (Alicapistat)] | % | -12.07
CC(=O)N1CCC(NC(=O)NC23CC4CC(CC(C4)C2)C3)CC1 [UNC10302683A, AR9281] | % | 2.94
CNc1nc(C)nc(N[C@H]2CCC[C@@H](C(=O)NCc3ccc(C#N)cc3C(F)(F)F)C2)n1 [UNC10302679A, GSK2256294A] | % | -10.29
CCC(=O)N1CCC(NC(=O)Nc2ccc(OC(F)(F)F)cc2)CC1 [UNC10302681A, TPPU] | % | 1.34

----------
Measured on: cloned human or rodent CNS receptors, channels, and transporters (PDSP panel) (Homo sapiens, UniProt P47898)
Construct: expressed in transfected cells
Sequence (P47898 whole entry): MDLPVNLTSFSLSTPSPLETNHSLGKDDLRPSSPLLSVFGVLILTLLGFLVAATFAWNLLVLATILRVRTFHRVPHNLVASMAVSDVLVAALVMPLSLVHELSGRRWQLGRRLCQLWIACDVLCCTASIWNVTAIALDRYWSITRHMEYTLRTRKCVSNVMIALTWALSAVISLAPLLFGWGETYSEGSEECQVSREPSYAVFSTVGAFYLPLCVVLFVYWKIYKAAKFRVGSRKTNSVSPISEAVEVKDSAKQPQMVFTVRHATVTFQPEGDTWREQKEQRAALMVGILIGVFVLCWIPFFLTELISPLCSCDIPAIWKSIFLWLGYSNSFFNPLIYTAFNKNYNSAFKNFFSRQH
Method notes: PDSP GPCR panel primary binding assays at 10 μM
Settings: Receptor 5-HT5A; primary assay, 10 μM

Compound | Inhibition 1
CCCCNc1ncc2c(-c3ccc(CN4CCN(C)CC4)cc3)cn([C@H]3CC[C@H](O)CC3)c2n1 [UNC2025C, UNC2025] | 24.59%
c1cn2cc(-c3ccc4cn[nH]c4c3)nc(Nc3ccc(N4CCOCC4)cc3)c2n1 [UNC10302678A, Entospletinib (GS-9973)] | 7.17%
Cl.NC(=O)c1cnc(N[C@@H]2CCCC[C@@H]2N)nc1Nc1cccc(-n2nccn2)c1 [UNC10302682A, P505-15 (PRT06207 HCl)] | -3.51%
O=c1oc2ccccc2cc1-c1cn2cc(Cc3ccc(F)cc3)sc2n1 [UNC10302680A, iMDK] | -14.99%

----------
Measured on: cloned human or rodent CNS receptors, channels, and transporters (PDSP panel) (Homo sapiens, UniProt P20309)
Construct: expressed in transfected cells
Sequence (P20309 whole entry): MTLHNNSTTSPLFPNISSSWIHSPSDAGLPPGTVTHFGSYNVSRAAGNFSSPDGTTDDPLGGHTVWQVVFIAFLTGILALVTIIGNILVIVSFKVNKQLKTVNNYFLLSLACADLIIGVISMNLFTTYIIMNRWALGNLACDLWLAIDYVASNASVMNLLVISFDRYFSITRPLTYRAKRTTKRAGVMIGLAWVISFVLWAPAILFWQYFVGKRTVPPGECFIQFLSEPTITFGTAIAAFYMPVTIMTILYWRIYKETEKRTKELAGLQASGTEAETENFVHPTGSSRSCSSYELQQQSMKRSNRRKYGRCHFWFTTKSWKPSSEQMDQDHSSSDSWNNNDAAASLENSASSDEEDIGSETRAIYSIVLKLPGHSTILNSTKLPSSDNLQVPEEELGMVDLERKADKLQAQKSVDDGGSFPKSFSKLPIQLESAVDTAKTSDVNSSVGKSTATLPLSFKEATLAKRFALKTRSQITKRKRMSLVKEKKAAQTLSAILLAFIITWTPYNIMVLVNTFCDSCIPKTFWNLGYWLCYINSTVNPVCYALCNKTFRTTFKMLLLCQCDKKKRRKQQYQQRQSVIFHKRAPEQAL
Method notes: PDSP GPCR panel primary binding assays at 10 μM
Settings: Receptor M3; primary assay, 10 μM
Experimental readout: Inhibition 4

Compound | Experimental value
CCCCNc1ncc2c(-c3ccc(CN4CCN(C)CC4)cc3)cn([C@H]3CC[C@H](O)CC3)c2n1 [UNC2025C, UNC2025] | 2.81%
Cl.NC(=O)c1cnc(N[C@@H]2CCCC[C@@H]2N)nc1Nc1cccc(-n2nccn2)c1 [UNC10302682A, P505-15 (PRT06207 HCl)] | 10.41%
O=c1oc2ccccc2cc1-c1cn2cc(Cc3ccc(F)cc3)sc2n1 [UNC10302680A, iMDK] | 13.11%
c1cn2cc(-c3ccc4cn[nH]c4c3)nc(Nc3ccc(N4CCOCC4)cc3)c2n1 [UNC10302678A, Entospletinib (GS-9973)] | 7.37%
